Each entry below carries its recorded EC50.
system tested: GLP-1R (Homo sapiens)
Sequence (P43220 24-463): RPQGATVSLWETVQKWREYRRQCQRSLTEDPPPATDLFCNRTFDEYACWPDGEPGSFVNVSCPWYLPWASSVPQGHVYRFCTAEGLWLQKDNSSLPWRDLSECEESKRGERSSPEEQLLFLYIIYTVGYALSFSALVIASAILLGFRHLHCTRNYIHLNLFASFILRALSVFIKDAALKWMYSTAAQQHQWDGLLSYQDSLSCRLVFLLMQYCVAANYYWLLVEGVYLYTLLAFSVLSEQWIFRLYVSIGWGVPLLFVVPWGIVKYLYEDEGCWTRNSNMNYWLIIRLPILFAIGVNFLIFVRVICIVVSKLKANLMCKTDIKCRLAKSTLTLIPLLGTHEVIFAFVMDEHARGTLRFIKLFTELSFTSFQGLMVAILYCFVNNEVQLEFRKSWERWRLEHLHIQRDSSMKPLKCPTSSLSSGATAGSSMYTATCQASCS
method notes: GLP-1R Activation - cAMP Assay
Assay type: cell-based
experimental setup: cAMP increase in CHO cells stably expressing GLP-1R; each compound run on one of the two cAMP assays (Assay 1 or Assay 2, not specified)
Provide only the numeric value, understood in pM.

Answered cases to consult:
{"molecule": "CC(=O)NCc1cc(F)c(COc2cccc(-c3cc(F)c(Cc4nc5ccc(C(=O)O)cc5n4C[C@@H]4CCO4)cc3F)n2)cn1", "EC50 (pM)": 233}
{"molecule": "Cc1cn(-c2ccc(COc3cccc(-c4cc(F)c(Cc5nc6ccc(C(=O)O)cc6n5[C@@H]5COCC5(C)C)cc4F)n3)c(F)c2)nn1", "EC50 (pM)": 85}
{"molecule": "COCCn1c(Cc2cc(F)c(-c3cccc(OCc4ccc(-n5ccnn5)nc4)n3)cc2Cl)nc2c(F)cc(C(=O)O)cc21", "EC50 (pM)": 171}
{"molecule": "CC1(C)COC[C@H]1n1c(Cc2cc(F)c(-c3ccnc(OCc4ccc(C#N)cc4F)n3)cc2F)nc2c(F)cc(C(=O)O)cc21", "EC50 (pM)": 97}
{"molecule": "C[C@@H]1COC[C@H]1n1c(Cc2cc(F)c(-c3cccc(OCc4ccc(C#N)cc4F)n3)cc2F)nc2ccc(C(=O)O)cc21 (racemic)", "EC50 (pM)": 363}
{"molecule": "COC[C@H]1COC[C@H]1n1c(Cc2cc(F)c(-c3cccc(OCc4ccc(C#N)cc4)n3)cc2F)nc2ccc(C(=O)O)cc21", "EC50 (pM)": 118}
{"molecule": "COCCn1c(Cc2c(F)cc(-c3cccc(OCc4cnc(-n5ccnn5)cc4Cl)n3)c(F)c2F)nc2c(F)cc(C(=O)O)cc21", "EC50 (pM)": 22}
{"molecule": "N#Cc1ccc(COc2cccc(-c3cc(F)c(Cc4nc5ccc(C(=O)O)cc5n4[C@@H]4CO[C@H]5OCC[C@H]54)cc3F)n2)c(F)c1", "EC50 (pM)": 600}

Item: `CC1(C)COC[C@H]1n1c(Cc2ccc(-c3cccc(OCc4ccc(C#N)cc4)n3)cc2F)nc2ccc(C(=O)O)cc21` | EC50: 294

Item: `Cn1nncc1-c1ccc(COc2cccc(-c3cc(F)c(Cc4nc5ccc(C(=O)O)cc5n4[C@@H]4COCC4(C)C)cc3F)n2)c(F)c1` | EC50: 26

Attribution: patent US12570642B2
